- assayTarget: JARID1B (Homo sapiens, UniProt Q9UGL1)
- Construct: The FLAG tagged full length JARID1B enzyme was expressed in Sf21 insect cells using FLAG-JARID1B baculoviruses; FLAG (N); made in house; host or cells: Sf21 insect cells (baculovirus)
- Sequence (Q9UGL1 whole entry): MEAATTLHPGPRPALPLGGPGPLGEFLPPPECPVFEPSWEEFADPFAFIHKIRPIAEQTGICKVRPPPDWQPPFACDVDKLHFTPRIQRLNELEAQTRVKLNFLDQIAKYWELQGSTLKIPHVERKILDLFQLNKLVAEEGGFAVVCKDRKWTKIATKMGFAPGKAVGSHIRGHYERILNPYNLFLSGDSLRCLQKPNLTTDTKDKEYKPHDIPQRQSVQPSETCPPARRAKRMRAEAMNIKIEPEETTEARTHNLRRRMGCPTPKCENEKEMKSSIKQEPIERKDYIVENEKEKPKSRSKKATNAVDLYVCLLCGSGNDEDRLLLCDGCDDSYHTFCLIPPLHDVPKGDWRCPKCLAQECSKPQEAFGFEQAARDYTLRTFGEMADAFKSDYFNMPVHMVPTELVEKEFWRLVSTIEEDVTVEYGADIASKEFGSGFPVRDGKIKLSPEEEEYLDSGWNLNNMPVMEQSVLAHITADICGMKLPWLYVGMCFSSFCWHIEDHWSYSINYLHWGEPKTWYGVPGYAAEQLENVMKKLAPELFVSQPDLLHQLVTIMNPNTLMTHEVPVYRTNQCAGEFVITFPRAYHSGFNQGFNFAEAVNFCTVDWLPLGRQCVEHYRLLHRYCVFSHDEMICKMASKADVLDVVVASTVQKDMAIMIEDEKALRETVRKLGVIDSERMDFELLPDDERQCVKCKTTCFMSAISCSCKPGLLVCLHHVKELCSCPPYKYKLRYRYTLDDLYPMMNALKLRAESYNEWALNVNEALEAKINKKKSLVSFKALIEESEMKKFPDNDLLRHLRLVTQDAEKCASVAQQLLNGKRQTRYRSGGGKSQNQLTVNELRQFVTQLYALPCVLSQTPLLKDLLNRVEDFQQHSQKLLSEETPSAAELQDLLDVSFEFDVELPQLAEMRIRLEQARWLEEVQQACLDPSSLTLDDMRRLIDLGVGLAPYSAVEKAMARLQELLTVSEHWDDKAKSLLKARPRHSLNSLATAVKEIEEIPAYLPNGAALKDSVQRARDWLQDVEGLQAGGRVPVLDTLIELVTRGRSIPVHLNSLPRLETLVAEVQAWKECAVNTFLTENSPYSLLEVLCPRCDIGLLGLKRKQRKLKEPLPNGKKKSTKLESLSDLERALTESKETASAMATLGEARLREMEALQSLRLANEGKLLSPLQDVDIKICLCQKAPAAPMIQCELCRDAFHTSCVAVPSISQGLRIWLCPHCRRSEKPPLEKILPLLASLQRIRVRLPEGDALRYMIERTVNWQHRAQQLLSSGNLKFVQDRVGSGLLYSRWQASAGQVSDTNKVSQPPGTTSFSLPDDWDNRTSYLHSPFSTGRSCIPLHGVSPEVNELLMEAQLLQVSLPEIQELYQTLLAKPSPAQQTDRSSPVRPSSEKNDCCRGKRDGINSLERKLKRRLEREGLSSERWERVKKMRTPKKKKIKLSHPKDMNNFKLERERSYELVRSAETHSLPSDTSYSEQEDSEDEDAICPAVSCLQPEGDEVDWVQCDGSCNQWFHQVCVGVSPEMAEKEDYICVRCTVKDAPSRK
- measurementDescription: FLAG-JARID1B histone demethylase assay with AlphaScreen detection (HTS and dose response);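 also: FLAG-tagged JARID1B at 4 nM acting on a biotinylated H3K4me3 peptide, demethylation read by AlphaScreen luminescence, with hits checked against bio-H3K4me2 without enzyme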
- Format: biochemical
- experimentalParameters: high-throughput screen, compound 20 μM, standard demethylase conditions (10 μM α-KG, 50 μM Fe (II)); read-out: Inhibitory effect (percent)
metricName: inhibition at 20 µM (%)
Answers are plain numbers, in %.

The cases that follow already have their inhibition at 20 µM on record.
Tell us which inhibition at 20 µM value is on record for O=c1c(O)c(-c2ccc(O)c(O)c2)oc2cc(O)ccc12 [YU155255, FISETIN, reference compound]
45.8

Tell us which inhibition at 20 µM value is on record for COc1ccc(C2CC(c3cccnc3)Nc3nnnn32)cc1 (stereo not shown) [YU151128]
59.7

Tell us which inhibition at 20 µM value is on record for Cc1ccc(NC(=O)CC2SC3=NCCCN3C2=O)c(C)c1 (stereo not shown) [YU152183]
39.4

Tell us which inhibition at 20 µM value is on record for C=CCO[C@H]1[C@H](O)[C@H](OCC=C)[C@H](O)[C@@H](OCC=C)[C@@H]1O [YU035165]
49.5

Tell us which inhibition at 20 µM value is on record for N#CC(C#N)=Cc1cc(O)c(O)c(O)c1 [YU154832, TYRPHOSTIN 25, reference compound]
53.7

Tell us which inhibition at 20 µM value is on record for Cn1c(C(C#N)=Cc2ccncc2)nc2ccccc21 (single isomer, unassigned) [YU146842]
90.8

Tell us which inhibition at 20 µM value is on record for Cc1ccc(C)c(NS(=O)(=O)c2ccc3[nH]c(=O)oc3c2)c1 [YU152226]
60.1

Tell us which inhibition at 20 µM value is on record for CCCCOc1ccc(NC(=O)CSc2nnnn2C)cc1 [YU152624]
37.7

Tell us which inhibition at 20 µM value is on record for N#CC(=Cc1ccncc1)c1nc2cc(C(F)(F)F)ccc2s1 (single isomer, unassigned) [YU153803]
90.8

Tell us which inhibition at 20 µM value is on record for COc1cccc2c1C(=O)c1c(O)c3c(c(O)c1C2=O)C[C@@](O)(C(=O)CO)C[C@@H]3O[C@H]1C[C@H](N)[C@H](O)[C@H](C)O1.Cl (stereo in doubt) [YU039629, DOXORUBICIN HYDROCHLORIDE, reference compound]
80.3

Provide inhibition at 20 µM for all items below, preserving their order.
1. Oc1c(C(Nc2ccc(Cl)cc2)c2cccnc2)ccc2cccnc12 (stereo not shown) [YU172165]
2. Cc1ccc(-n2sc3ccccc3c2=O)cc1 [YU146026]
3. CNCCCOc1ccc(OCc2ccccc2)cc1 [YU147640]
4. O=C(O)c1cc(O)c(O)c(O)c1 [YU155562, GALLIC ACID, reference compound]
5. O=c1c(O)c(-c2ccc(O)c(O)c2)oc2c(O)c(O)cc(O)c12 [YU155360, GOSSYPETIN, reference compound]
6. C=CCn1c(S)nnc1CNC(=O)c1cccc(C)c1 [YU149014]
7. CC(NC(=O)c1ccco1)c1ccncc1 (stereo not shown) [YU145239]

1: 42.3; 2: 87.8; 3: 39.1; 4: 63.9; 5: 103; 6: 35.7; 7: 42.4

Provide inhibition at 20 µM for all items below, preserving their order.
1. O=C(O)c1cc(O)c2c(c1)[C@@H]([C@H]1c3cc(C(=O)O)cc(O)c3C(=O)c3c(O[C@H]4O[C@H](CO)[C@@H](O)[C@H](O)[C@H]4O)cccc31)c1cccc(O[C@H]3O[C@H](CO)[C@@H](O)[C@H](O)[C@H]3O)c1C2=O (stereo in doubt) [YU155201, SENNOSIDE A, reference compound]
2. COc1ccccc1OCC(O)COC(N)=O (stereo not shown) [YU033898, METHOCARBAMOL, reference compound]

60
93.2

These entries and their values trace back to patent US20150272939A1.
